- experimental_system: Neu5Ac(a2-3)Gal(b1-3)GalNAc
- test_summary: glycan array binding signal (z-score within array); higher = stronger binding
- condition_context: glycan notation: IUPAC condensed, linker removed
Shown is part of a subset that was picked to be rich in the strongest signals.
glycan array binding signal (z-score) values by entry
# print the numeric value only

Reference set, count: 5
LEA (Lycopersicon esculentum) (protein) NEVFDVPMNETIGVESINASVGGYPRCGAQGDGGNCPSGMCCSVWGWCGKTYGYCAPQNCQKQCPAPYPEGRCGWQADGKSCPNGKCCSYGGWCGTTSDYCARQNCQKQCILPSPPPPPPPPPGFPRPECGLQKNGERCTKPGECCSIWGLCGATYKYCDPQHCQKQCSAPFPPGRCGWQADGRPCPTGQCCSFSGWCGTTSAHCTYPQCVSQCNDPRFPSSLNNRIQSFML = -0.56
CrataBL (Crataeva tapia), C0HJA4 (protein) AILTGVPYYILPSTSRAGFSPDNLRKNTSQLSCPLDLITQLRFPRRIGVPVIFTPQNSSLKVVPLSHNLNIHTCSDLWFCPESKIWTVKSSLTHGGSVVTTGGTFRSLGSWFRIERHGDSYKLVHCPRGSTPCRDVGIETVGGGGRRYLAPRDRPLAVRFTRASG = 0.131
Gal 10 (Homo sapiens), Q05315 (protein) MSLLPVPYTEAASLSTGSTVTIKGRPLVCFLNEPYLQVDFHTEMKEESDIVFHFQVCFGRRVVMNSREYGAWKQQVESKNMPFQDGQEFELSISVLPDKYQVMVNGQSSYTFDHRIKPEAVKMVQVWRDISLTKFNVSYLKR = -0.079
Thrombomodulin (Mus musculus) (protein) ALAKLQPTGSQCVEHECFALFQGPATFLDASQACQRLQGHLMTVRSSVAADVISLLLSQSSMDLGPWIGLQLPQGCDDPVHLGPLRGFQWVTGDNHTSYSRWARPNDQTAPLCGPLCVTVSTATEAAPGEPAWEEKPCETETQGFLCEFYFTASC = 1.07
KISKRILTGKK [NK11 (Sus scrofa)] = 0.104

Now, please, on to the next binder.
Task item: Consider the binder MAL-II (Maackia amurensis), P93248 (protein) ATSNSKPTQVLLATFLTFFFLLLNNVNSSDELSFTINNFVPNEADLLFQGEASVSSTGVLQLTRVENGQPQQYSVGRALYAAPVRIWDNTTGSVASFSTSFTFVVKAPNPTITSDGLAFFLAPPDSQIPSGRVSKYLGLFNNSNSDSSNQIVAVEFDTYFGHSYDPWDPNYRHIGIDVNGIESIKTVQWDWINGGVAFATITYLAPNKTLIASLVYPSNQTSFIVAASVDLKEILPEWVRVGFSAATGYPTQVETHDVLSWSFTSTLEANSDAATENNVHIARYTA . State its measured glycan array binding signal (z-score).
Reply: 3.54
